Molecular target: Cysteine protease falcipain-3 (Plasmodium falciparum) (UniProt Q9NAW4)
Sequence (whole entry): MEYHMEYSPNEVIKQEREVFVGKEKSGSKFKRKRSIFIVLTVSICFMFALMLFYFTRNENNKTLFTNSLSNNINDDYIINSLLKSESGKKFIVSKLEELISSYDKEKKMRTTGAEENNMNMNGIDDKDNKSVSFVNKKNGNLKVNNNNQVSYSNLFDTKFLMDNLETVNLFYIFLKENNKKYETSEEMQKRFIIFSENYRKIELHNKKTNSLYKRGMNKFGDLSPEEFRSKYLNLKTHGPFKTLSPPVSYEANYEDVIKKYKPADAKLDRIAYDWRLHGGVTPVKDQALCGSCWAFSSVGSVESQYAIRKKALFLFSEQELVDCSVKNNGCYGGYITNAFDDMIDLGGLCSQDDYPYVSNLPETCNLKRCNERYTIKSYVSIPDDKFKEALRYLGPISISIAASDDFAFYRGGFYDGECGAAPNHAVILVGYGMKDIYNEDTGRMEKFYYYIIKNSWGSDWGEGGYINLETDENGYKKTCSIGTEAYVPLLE
Assay: Inhibition of recombinant Plasmodium falciparum falcipain-3 expressed in bacterial expression system using ZFR-AMC as substrate at 100 uM measured for 30 mins by fluorimetric assay relative to control
readout.label: inhibition

The reported value for O=C(NCCCNC(=O)c1cc2ccccc2[nH]1)c1ccc(-c2ccccc2)cc1 in terms of inhibition is 62%

The reported value for CCc1ccc(NC(=O)CN2CCN(c3nc4ccccc4s3)CC2)cc1 in terms of inhibition is 26%

The reported value for O=C1CCc2cc(CNC(=O)Cn3ncc4ccccc4c3=O)ccc2C1 in terms of inhibition is 41%

The reported value for Cc1cccc(O)c1OC1CCN(CC(=O)Nc2ccc(CN3CCOCC3)cc2)CC1 in terms of inhibition is 25%

The reported value for O=C1CN(CC(=O)NC2CCOc3ccccc32)CCN1 (stereo unspecified) in terms of inhibition is 25%

The record that follows has no inhibition shown yet.
The reported value for O=C(CN1CCC(C2N=c3ccccc3=N2)CC1)Nc1cccc2ccccc12 in terms of inhibition is 49%
